Biological target: Histidinol dehydrogenase (Brucella suis biovar 1 (strain 1330), UniProt Q8G2R2)
Sequence (Q8G2R2 whole entry): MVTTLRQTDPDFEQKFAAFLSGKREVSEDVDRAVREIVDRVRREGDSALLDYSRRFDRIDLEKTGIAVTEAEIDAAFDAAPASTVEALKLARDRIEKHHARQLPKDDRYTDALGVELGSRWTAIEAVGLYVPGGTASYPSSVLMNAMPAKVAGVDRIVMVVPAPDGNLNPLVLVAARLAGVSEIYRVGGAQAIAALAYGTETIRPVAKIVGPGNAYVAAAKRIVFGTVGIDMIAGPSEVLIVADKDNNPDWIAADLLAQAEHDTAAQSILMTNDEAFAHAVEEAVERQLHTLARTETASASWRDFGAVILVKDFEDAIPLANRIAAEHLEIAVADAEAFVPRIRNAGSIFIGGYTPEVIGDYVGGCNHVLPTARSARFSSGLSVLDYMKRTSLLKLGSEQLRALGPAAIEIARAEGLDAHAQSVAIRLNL
Experiment: Inhibition of Brucella suis histidinol dehydrogenase
pIC50: −log10 of the molar value.
READOUT: pIC50

Cl.Cl.N[C@@H](Cc1c[nH]cn1)C(=O)Cc1ccc(Cl)cc1
8.22
Cl.Cl.N[C@@H](Cc1c[nH]cn1)C(=O)Cc1c(F)c(F)c(F)c(F)c1F
8.22
Cl.Cl.N[C@@H](Cc1c[nH]cn1)C(=O)Cc1ccc2c(c1)OCO2
8.22
Cl.Cl.N[C@@H](Cc1c[nH]cn1)C(=O)Cc1ccc(-c2ccccc2)cc1
8.22
Cc1ccc(CC(=O)[C@@H](N)Cc2c[nH]cn2)cc1.Cl.Cl
8.22
Cl.Cl.N[C@@H](Cc1c[nH]cn1)C(=O)Cc1ccccc1
8.22
Cl.Cl.N[C@@H](Cc1c[nH]cn1)C(=O)Cc1cccc2ccccc12
8.22
Cl.Cl.N[C@@H](Cc1c[nH]cn1)C(=O)Cc1ccc2ccccc2c1
8.22
